testedSystem: HsATC (Homo sapiens)
Construct: ATCase domain of CAD; made in house; host or cells: E. coli BL21 star
Sequence (P27708 1918-2225 limits assumed): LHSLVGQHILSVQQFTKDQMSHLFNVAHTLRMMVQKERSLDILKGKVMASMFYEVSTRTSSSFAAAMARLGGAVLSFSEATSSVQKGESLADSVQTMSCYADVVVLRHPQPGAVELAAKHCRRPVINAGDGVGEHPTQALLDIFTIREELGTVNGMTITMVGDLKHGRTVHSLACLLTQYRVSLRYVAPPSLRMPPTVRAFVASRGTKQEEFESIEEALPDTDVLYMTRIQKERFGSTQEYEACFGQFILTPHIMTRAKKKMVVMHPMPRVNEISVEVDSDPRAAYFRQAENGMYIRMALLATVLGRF
assayComment: HsATC activity assay
Format: biochemical
conditionDescription: in vitro activity assay, 10 mM L-aspartate, 5 mM carbamoyl phosphate; read-out: HsATC IC50
quantity: IC50
Don't forget the unit after the value.

Sample records with IC50:
Q) If you can, please state the reported IC50 value of COC(=O)c1c(NC(=O)OC(C)(C)C)sc2c1CCCC2 [BDA-67] .
A) 1010 nM

Q) If you can, please state the reported IC50 value of CC(C)(C)OC(=O)Nc1sc(-c2ccc3c(c2)OCCO3)cc1C(=O)NCCc1ccc(O)cc1 [BDA-33] .
A) 100 nM

Q) If you can, please state the reported IC50 value of O=C(NCCc1ccccc1)c1cc(-c2ccccc2)sc1NCc1ncc[nH]1 [BDA-13] .
A) 268 nM

Q) If you can, please state the reported IC50 value of CC(C)(C)OC(=O)Nc1sc(-c2ccccc2)cc1C(=O)NCCc1ccc(F)cc1 [BDA-28] .
A) 391 nM

Q) If you can, please state the reported IC50 value of CC(C)(C)OC(=O)Nc1sc(-c2ccccc2)cc1C(=O)NCCC1=CCCCC1 [BDA-20] .
A) 2000 nM

Q) If you can, please state the reported IC50 value of CC(C)(C)OC(=O)Nc1sc(-c2ccccc2)cc1C(=O)NCCc1ccc(O)c(O)c1 [BDA-25] .
A) 403 nM

---
Q) If you can, please state the reported IC50 value of Cc1c(-c2ccccc2)sc(NC(=O)OC(C)(C)C)c1C(=O)NCCc1ccc(O)cc1 [BDA-49] .
A) 729 nM

Q) If you can, please state the reported IC50 value of CC(C)(C)OC(=O)Nc1sc(Cc2ccccc2)cc1C(=O)NCCc1ccc(O)cc1 [BDA-59] .
A) 2590 nM

Q) If you can, please state the reported IC50 value of CC(C)(C)OC(=O)Nc1sc(-c2ccccc2)cc1C(=O)NCc1ccccc1 [BDA-34] .
A) 212 nM

* * *

testedSystem: PfATC (Plasmodium falciparum, UniProt A0A5K1K910)
Sequence (A0A5K1K910 entry or part of it): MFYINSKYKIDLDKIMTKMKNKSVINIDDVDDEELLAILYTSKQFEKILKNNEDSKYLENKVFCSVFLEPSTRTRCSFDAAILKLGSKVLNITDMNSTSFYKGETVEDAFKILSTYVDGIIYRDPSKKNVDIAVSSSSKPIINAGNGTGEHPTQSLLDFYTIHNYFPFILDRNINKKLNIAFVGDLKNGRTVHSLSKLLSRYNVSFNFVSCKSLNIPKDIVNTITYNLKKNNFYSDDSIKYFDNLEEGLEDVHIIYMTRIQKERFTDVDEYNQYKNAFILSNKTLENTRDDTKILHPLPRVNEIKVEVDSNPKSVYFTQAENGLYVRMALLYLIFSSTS
assayComment: biochemical
conditionDescription: in vitro activity assay, PfATC 50 nM, 2 mM CP, 1 mM aspartate; read-out: PfATC IC50
Using IC50 as the sorting value, the categories are lower band (below 1000 nM), central band (1000 nM to below 2000 nM), upper band (2000 nM or more)

Some solved cases for reference:
Q) Dear colleague, I would appreciate it if you could identify the bin for COC(=O)c1cc(-c2ccccc2)sc1N and reply at your convenience.
A) central band

Q) Dear colleague, I would appreciate it if you could identify the bin for COC(=O)c1c(NC(=O)OC(C)(C)C)sc2c1CCCC2 and reply at your convenience.
A) central band

Q) Dear colleague, I would appreciate it if you could identify the bin for CC(C)(C)OC(=O)Nc1sc(-c2ccccc2)cc1C(=O)N1CCN(c2ccc(F)cc2)CC1 and reply at your convenience.
A) upper band

Q) Dear colleague, I would appreciate it if you could identify the bin for CC(C)(C)OC(=O)Nc1sc(-c2ccccc2)cc1C(=O)NCCc1ccc(F)cc1 and reply at your convenience.
A) central band

Q) Dear colleague, I would appreciate it if you could identify the bin for COc1ccc(CCNC(=O)c2cc(-c3ccccc3)sc2NC(=O)OC(C)(C)C)cc1 and reply at your convenience.
A) central band

---
Q) Dear colleague, I would appreciate it if you could identify the bin for CC(C)(C)OC(=O)Nc1oc(-c2ccc(Cl)cc2)cc1C(=O)NCCc1ccc(O)cc1 and reply at your convenience.
A) upper band

Q) Dear colleague, I would appreciate it if you could identify the bin for COc1ccccc1CCNC(=O)c1cc(-c2ccccc2)sc1NC(=O)OC(C)(C)C and reply at your convenience.
A) central band

Q) Dear colleague, I would appreciate it if you could identify the bin for CC(C)(C)OC(=O)Nc1sc(-c2cccc(C=O)c2)cc1C(=O)NCCc1ccc(O)cc1 and reply at your convenience.
A) central band

Q) Dear colleague, I would appreciate it if you could identify the bin for N#CC1(C(=O)Nc2sc(-c3ccccc3)cc2C(=O)NCCc2ccc(O)cc2)CC1 and reply at your convenience.
A) lower band

Q) Dear colleague, I would appreciate it if you could identify the bin for CC(C)CCNc1sc(-c2ccccc2)cc1C(=O)NCCc1ccc(O)cc1 and reply at your convenience.
A) upper band

* * *

testedSystem: HsATC (Homo sapiens)
Construct: ATCase domain of CAD; made in house; host or cells: E. coli BL21 star
Sequence (P27708 1918-2225 limits assumed): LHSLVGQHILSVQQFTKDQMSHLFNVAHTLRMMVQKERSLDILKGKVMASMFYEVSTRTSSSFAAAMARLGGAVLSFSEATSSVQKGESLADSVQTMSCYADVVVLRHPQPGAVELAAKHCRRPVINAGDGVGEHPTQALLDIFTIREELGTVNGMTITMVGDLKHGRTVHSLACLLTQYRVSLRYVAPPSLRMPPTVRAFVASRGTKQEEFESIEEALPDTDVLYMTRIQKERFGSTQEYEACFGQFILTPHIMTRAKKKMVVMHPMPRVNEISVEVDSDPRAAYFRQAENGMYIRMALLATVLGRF
assayComment: HsATC activity assay
Assay type: biochemical
conditionDescription: in vitro activity assay, 10 mM L-aspartate, 5 mM carbamoyl phosphate; read-out: HsATC IC50
quantity: pIC50
The value called pIC50 is obtained by taking minus log10 of the concentration in mol/L.

Q) If you can, please state the reported pIC50 value of COC(=O)c1cc(-c2ccccc2)sc1NC(=O)OC(C)(C)C .
A) 5.82

Q) If you can, please state the reported pIC50 value of CC(C)(C)OC(=O)Nc1sc2c(c1C(=O)NCCc1ccc(O)cc1)CCN(Cc1ccccc1)C2 .
A) 5.42

Q) If you can, please state the reported pIC50 value of CC(C)(C)OC(=O)Nc1sc(-c2ccccc2)cc1C(=O)NC1CCN(Cc2ccccc2)CC1 .
A) 6.73

Q) If you can, please state the reported pIC50 value of CC(C)(C)OC(=O)Nc1sc(-c2cncc(Cl)c2)cc1C(=O)NCCc1ccc(O)cc1 .
A) 4.94

Q) If you can, please state the reported pIC50 value of CC(C)(C)OC(=O)Nc1sc(-c2ccccc2)cc1C(=O)N1CCN(c2ccc(O)cc2)CC1 .
A) 6.60

Q) If you can, please state the reported pIC50 value of COc1ccccc1CCNC(=O)c1cc(-c2ccccc2)sc1NC(=O)OC(C)(C)C .
A) 6.59

Q) If you can, please state the reported pIC50 value of CC(C)(C)OC(=O)Nc1sc(-c2cccc(N)c2)cc1C(=O)NCCc1ccc(O)cc1 .
A) 6.65

Q) If you can, please state the reported pIC50 value of COc1ccc(CCNC(=O)c2cc(-c3ccccc3)sc2NC(=O)OC(C)(C)C)cc1 .
A) 6.23

Q) If you can, please state the reported pIC50 value of CC(C)(C)OC(=O)Nc1sc(-c2ccccc2)cc1C(=O)NCCc1ccc(Br)cc1 .
A) 6.24

Q) If you can, please state the reported pIC50 value of CC(C)(C)OC(=O)Nc1sc(-c2ccccc2)cc1C(=O)Nc1ccccc1 .
A) 6.48

Q) If you can, please state the reported pIC50 value of CC(C)(C)OC(=O)Nc1sc(-c2ccc(C=O)cc2)cc1C(=O)NCCc1ccc(O)cc1 .
A) 6.91

* * *

System: P. falciparum 3D7
assayComment: Growth-inhibition assay of P. falciparum (SYBR Green I)
Format: cell-based, Plasmodium falciparum
conditionDescription: Plasmodium falciparum, 3D7, 96 h, P. falciparum 3D7, 96 h; read-out: EC50 against blood stage 3D7 cultures
Procedure: 488Cell culture and growth-inhibition assay of P. falciparum. P. falciparum 3D7 parasites 489(Wellcome Trust Dundee) were maintained in continuous culture at 37 °C and an atmosphere […] 4992% in a volume of 100 µL per well. Parasite proliferation was measured by quantifying DNA via 500SYBR Green I emitted fluorescence in the wells after addition of 100 µL lysis buffer supplemented […] 502Fluorescence was quantified using a CLARIOstar plate reader (BMG Labtech, Germany) at […] 509drug fluorescence, respectively. […]
quantity: pEC50
The value called pEC50 is obtained by taking minus log10 of the concentration in mol/L.

Q) If you can, please state the reported pEC50 value of CC(C)(C)OC(=O)Nc1sc(-c2ccccc2)cc1C(=O)NCCc1ccccc1 .
A) 5.62
